Recorded viability, T/C by entry
test system: 323965-272-R-J2-PDC complex spheroid viability; assay: Anticancer human tumor 323965-272-R-J2-PDC patient-derived pancreatic carcinoma cell line growth inhibition [CLK]; conditions: second compound 0.0316 µM; first compound 0.0316 µM; active compounds read low;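 further: spheroids exposed to agents for seven days before readout; percent of DMSO vehicle control wells so 100% = untreated growth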
Express your answer in %, writing the number without its unit.

IN: Give the measured viability, T/C of COC1C=CCC(C)C(C)S(=O)(=O)NC(=O)c2ccc3c(c2)N(CC2CCC21)CC1(CCCc2cc(Cl)ccc21)CO3 (configuration not stated) + CN1CCN(c2cc(C(=O)Nc3cc4cc(-c5cnn(C)c5)ccc4cn3)ccn2)CC1 .
OUT: 97.8

IN: Try this compound next: CC(=O)O[C@H]1C(=O)[C@@]2(C)[C@H]([C@H](OC(=O)c3ccccc3)[C@]3(O)C[C@H](OC(=O)[C@H](O)[C@@H](NC(=O)c4ccccc4)c4ccccc4)C(C)=C1C3(C)C)[C@]1(OC(C)=O)CO[C@@H]1C[C@@H]2O + CN1CCN(c2cc(C(=O)Nc3cc4cc(-c5cnn(C)c5)ccc4cn3)ccn2)CC1
OUT: 33.2
